Hey, just so you know, these numbers are from ChEMBL document CHEMBL4229446.

# protocol_text: Tmax in C57BL/6 mouse plasma at 22 mg/kg, iv administered as single dose measured 24 hrs by UPLC-MS/MS analysis
# Format: ADME, organism-based
property_label: Tmax (min)
A number alone suffices; assume min.

Input line: Which measured Tmax value corresponds to `C[C@H](Cc1ccc(OCc2ccc(Cl)c(Cl)c2)cc1)N(C)CC(=O)O` ?
Output line: 5

----------
# protocol_text: Metabolic stability in mouse plasma assessed as parent compound remaining at 5 uM after 4 hrs by UPLC-MS/MS analysis
# Assay type: ADME, cell-free
# recorded_conditions: read-out: Stability
property_label: remaining at 4 h, 5 µM

Input line: Which measured remaining at 4 h, 5 µM value corresponds to `C[C@H](Cc1ccc(OCc2cccc(Cl)c2)cc1)N(C)CC(=O)O` ?
Output line: ≥ 75%

Input line: Which measured remaining at 4 h, 5 µM value corresponds to `CN(CC(=O)O)[C@H](CC#N)Cc1ccc(OCc2ccc(Cl)c(Cl)c2)cc1` ?
Output line: ≥ 75%

Input line: Which measured remaining at 4 h, 5 µM value corresponds to `C[C@H](Cc1ccc(OCc2ccc(Cl)c(Cl)c2)cc1)N(C)CC(=O)O` ?
Output line: ≥ 75%

Input line: Which measured remaining at 4 h, 5 µM value corresponds to `C#CCN(C)[C@H](C)Cc1ccccc1` ?
Output line: 61%

Input line: Which measured remaining at 4 h, 5 µM value corresponds to `C[C@H](Cc1ccc(OCc2ccc(Br)c(Cl)c2)cc1)N(C)CC(=O)O` ?
Output line: ≥ 75%
